// provenance: the supplement of paper PMC10307832

tested on: NCI-H1792; experiment: relative viability (nuclei count vs DMSO), 5 days (fraction); higher = more cells survive; details: first compound 0.6325 µM
measurement.label: relative viability

compound	measurement.label	numeric.readout
COCC1(CO)C(=O)C2CCN1CC2 (centres undefined) [PRIMA-1MET] + C[C@]1(O)C[C@@H](c2nc(-c3ccc4ccc(-c5ccccc5)nc4c3)c3c(N)nccn32)C1 [Linsitinib] (partner 1 µM)	relative viability	0.477
COCC1(CO)C(=O)C2CCN1CC2 (centres undefined) [PRIMA-1MET] + CC1(C)CCC(c2ccc(Cl)cc2)=C(CN2CCN(c3ccc(C(=O)NS(=O)(=O)c4ccc(N[C@H](CCN5CCOCC5)CSc5ccccc5)c(S(=O)(=O)C(F)(F)F)c4)cc3)CC2)C1 [Navitoclax] (partner 0.5 µM)	relative viability	0.48
COCC1(CO)C(=O)C2CCN1CC2 (centres undefined) [PRIMA-1MET] + C[C@@H](Oc1cc(-c2cnn(C3CCNCC3)c2)cnc1N)c1c(Cl)ccc(F)c1Cl [Crizotinib] (partner 1 µM)	relative viability	0.884
COCC1(CO)C(=O)C2CCN1CC2 (centres undefined) [PRIMA-1MET] + CCNC(=O)c1noc(-c2cc(C(C)C)c(O)cc2O)c1-c1ccc(CN2CCOCC2)cc1 [Luminespib] (partner 0.01 µM)	relative viability	0.491

---

tested on: NCI-H2085; experiment: relative viability (nuclei count vs DMSO), 5 days (fraction); higher = more cells survive; settings: first compound 2.53 µM
Response field label: string, one of Yes (relative viability strictly below 0.7) or No.

molecule	category.label
COc1nc(C)cnc1NS(=O)(=O)c1cccnc1-c1ccc(-c2nnco2)cc1 [Zibotentan] + C[C@]1(O)C[C@@H](c2nc(-c3ccc4ccc(-c5ccccc5)nc4c3)c3c(N)nccn32)C1 [Linsitinib] (partner 1 µM)	No
O=c1cc(-c2cccc3c2Sc2ccccc2S3)oc(N2CCOCC2)c1 + O=C(c1cc(Cc2n[nH]c(=O)c3ccccc23)ccc1F)N1CCN(C(=O)C2CC2)CC1 [Olaparib] (partner 8 µM)	No
COc1nc(C)cnc1NS(=O)(=O)c1cccnc1-c1ccc(-c2nnco2)cc1 [Zibotentan] + Nc1ncn([C@H]2C[C@H](O)[C@@H](CO)O2)c(=O)n1 [Decitabine] (partner 2 µM)	Yes
COc1nc(C)cnc1NS(=O)(=O)c1cccnc1-c1ccc(-c2nnco2)cc1 [Zibotentan] + Cc1cc(Nc2cc(N3CCN(C)CC3)nc(Sc3ccc(NC(=O)C4CC4)cc3)n2)n[nH]1 [Tozasertib] (partner 0.1 µM)	No
COc1nc(C)cnc1NS(=O)(=O)c1cccnc1-c1ccc(-c2nnco2)cc1 [Zibotentan] + O=C(c1cc(Cc2n[nH]c(=O)c3ccccc23)ccc1F)N1CCN(C(=O)C2CC2)CC1 [Olaparib] (partner 8 µM)	No
COc1nc(C)cnc1NS(=O)(=O)c1cccnc1-c1ccc(-c2nnco2)cc1 [Zibotentan] + NC(=O)Nc1cc(-c2cccc(F)c2)sc1C(=O)N[C@H]1CCCNC1 [AZD7762] (partner 0.2 µM)	No
COc1nc(C)cnc1NS(=O)(=O)c1cccnc1-c1ccc(-c2nnco2)cc1 [Zibotentan] + COc1cccc2cc(-c3nc([C@H]4CC[C@H](C(=O)O)CC4)n4ncnc(N)c34)[nH]c12 [OSI-027] (partner 0.5 µM)	No
O=c1cc(-c2cccc3c2Sc2ccccc2S3)oc(N2CCOCC2)c1 + COc1cccc2cc(-c3nc([C@H]4CC[C@H](C(=O)O)CC4)n4ncnc(N)c34)[nH]c12 [OSI-027] (partner 0.5 µM)	Yes
O=c1cc(-c2cccc3c2Sc2ccccc2S3)oc(N2CCOCC2)c1 + Cc1nc(Nc2ncc(C(=O)Nc3c(C)cccc3Cl)s2)cc(N2CCN(CCO)CC2)n1 [Dasatinib] (partner 0.075 µM)	Yes
O=c1cc(-c2cccc3c2Sc2ccccc2S3)oc(N2CCOCC2)c1 + N=C(N)NC(=N)NCCc1ccccc1 [Phenformin] (partner 250 µM)	Yes

---

test system: NCI-H2126; test: relative viability (nuclei count vs DMSO), 5 days (fraction); higher = more cells survive; conditions: first compound 2.53 µM
Just a reminder that ties go to n: only relative viability strictly below 1 counts as y.

molecule	category.label
COc1nc(C)cnc1NS(=O)(=O)c1cccnc1-c1ccc(-c2nnco2)cc1 [Zibotentan] + C[C@]1(O)C[C@@H](c2nc(-c3ccc4ccc(-c5ccccc5)nc4c3)c3c(N)nccn32)C1 [Linsitinib] (partner 1 µM)	y
COc1nc(C)cnc1NS(=O)(=O)c1cccnc1-c1ccc(-c2nnco2)cc1 [Zibotentan] + Nc1nc2[nH]cc(CCc3ccc(C(=O)N[C@@H](CCC(=O)O)C(=O)O)cc3)c2c(=O)[nH]1 [Pemetrexed] (partner 0.2 µM)	y
COc1nc(C)cnc1NS(=O)(=O)c1cccnc1-c1ccc(-c2nnco2)cc1 [Zibotentan] + O=C(c1cc(Cc2n[nH]c(=O)c3ccccc23)ccc1F)N1CCN(C(=O)C2CC2)CC1 [Olaparib] (partner 8 µM)	y
O=c1cc(-c2cccc3c2Sc2ccccc2S3)oc(N2CCOCC2)c1 + COc1cc2c(Oc3ccc(NC(=O)C4(C(=O)Nc5ccc(F)cc5)CC4)cc3F)ccnc2cc1OCCCN1CCOCC1 [Foretinib] (partner 0.25 µM)	n
COc1nc(C)cnc1NS(=O)(=O)c1cccnc1-c1ccc(-c2nnco2)cc1 [Zibotentan] + N=C(N)NC(=N)NCCc1ccccc1 [Phenformin] (partner 250 µM)	y

---

system: NCI-H1651; experiment: relative viability (nuclei count vs DMSO), 5 days (fraction); higher = more cells survive; details: first compound 20 µM
The reader will find reported relative viability values listed item by item below.

molecule	relative viability
COCC1(CO)C(=O)C2CCN1CC2 (stereo not given) [PRIMA-1MET] + CC1(C)CCC(c2ccc(Cl)cc2)=C(CN2CCN(c3ccc(C(=O)NS(=O)(=O)c4ccc(N[C@H](CCN5CCOCC5)CSc5ccccc5)c(S(=O)(=O)C(F)(F)F)c4)cc3)CC2)C1 [Navitoclax] (partner 0.5 µM)	0.974
COCC1(CO)C(=O)C2CCN1CC2 (stereo not given) [PRIMA-1MET] + C[C@@H](Oc1cc(-c2cnn(C3CCNCC3)c2)cnc1N)c1c(Cl)ccc(F)c1Cl [Crizotinib] (partner 1 µM)	0.888
COCC1(CO)C(=O)C2CCN1CC2 (stereo not given) [PRIMA-1MET] + O=C(CCCCCCC(=O)Nc1ccccc1)NO [Vorinostat] (partner 1 µM)	0.564
COCC1(CO)C(=O)C2CCN1CC2 (stereo not given) [PRIMA-1MET] + CC(=O)Nc1cccc(-n2c(=O)n(C3CC3)c(=O)c3c(Nc4ccc(I)cc4F)n(C)c(=O)c(C)c32)c1 [Trametinib] (partner 0.02 µM)	0.848
COCC1(CO)C(=O)C2CCN1CC2 (stereo not given) [PRIMA-1MET] + Nc1ncn([C@H]2C[C@H](O)[C@@H](CO)O2)c(=O)n1 [Decitabine] (partner 2 µM)	0.6

---

test system: NCI-H1975; test: relative viability (nuclei count vs DMSO), 5 days (fraction); higher = more cells survive; details: first compound 2 µM
We begin with a simple list: items and their reported relative viability.

compound	relative viability
COCC1(CO)C(=O)C2CCN1CC2 (stereo not given) [PRIMA-1MET] + CCNC(=O)c1noc(-c2cc(C(C)C)c(O)cc2O)c1-c1ccc(CN2CCOCC2)cc1 [Luminespib] (partner 0.01 µM)	0.21
COCC1(CO)C(=O)C2CCN1CC2 (stereo not given) [PRIMA-1MET] + Cc1nc(NC(=O)N2CCC[C@H]2C(N)=O)sc1-c1ccnc(C(C)(C)C(F)(F)F)c1 [Alpelisib] (partner 2 µM)	0.694
COCC1(CO)C(=O)C2CCN1CC2 (stereo not given) [PRIMA-1MET] + CC(=O)c1c(C)c2cnc(Nc3ccc(N4CCNCC4)cn3)nc2n(C2CCCC2)c1=O [Palbociclib] (partner 0.5 µM)	0.409
COCC1(CO)C(=O)C2CCN1CC2 (stereo not given) [PRIMA-1MET] + CS(=O)(=O)CCNCc1ccc(-c2ccc3ncnc(Nc4ccc(OCc5cccc(F)c5)c(Cl)c4)c3c2)o1 [Lapatinib] (partner 2 µM)	0.774
COCC1(CO)C(=O)C2CCN1CC2 (stereo not given) [PRIMA-1MET] + CS(=O)(=O)N1CCN(Cc2cc3nc(-c4cccc5[nH]ncc45)nc(N4CCOCC4)c3s2)CC1 [Pictilisib] (partner 1 µM)	0.27

---

# Lookup of reported relative viability keyed by entry
tested on: NCI-H1299; assay: relative viability (nuclei count vs DMSO), 5 days (fraction); higher = more cells survive; conditions: first compound 0.03162 µM
measurement.label: relative viability

compound	measured.target	result
CCN(CC)CCCCNc1ncc2cc(-c3cc(OC)cc(OC)c3)c(NC(=O)NC(C)(C)C)nc2n1 + Cc1nc(NC(=O)N2CCC[C@H]2C(N)=O)sc1-c1ccnc(C(C)(C)C(F)(F)F)c1 [Alpelisib] (partner 2 µM)	NCI-H1299	1.12
CCN(CC)CCCCNc1ncc2cc(-c3cc(OC)cc(OC)c3)c(NC(=O)NC(C)(C)C)nc2n1 + C[C@]1(O)C[C@@H](c2nc(-c3ccc4ccc(-c5ccccc5)nc4c3)c3c(N)nccn32)C1 [Linsitinib] (partner 1 µM)	NCI-H1299	1.01
CCN(CC)CCCCNc1ncc2cc(-c3cc(OC)cc(OC)c3)c(NC(=O)NC(C)(C)C)nc2n1 + COc1cc2c(Oc3ccc(NC(=O)C4(C(=O)Nc5ccc(F)cc5)CC4)cc3F)ccnc2cc1OCCCN1CCOCC1 [Foretinib] (partner 0.25 µM)	NCI-H1299	1.1
CCN(CC)CCCCNc1ncc2cc(-c3cc(OC)cc(OC)c3)c(NC(=O)NC(C)(C)C)nc2n1 + CC(C)C[C@H](NC(=O)[C@H](Cc1ccccc1)NC(=O)c1cnccn1)B(O)O [Bortezomib] (partner 0.002 µM)	NCI-H1299	1.02
O=c1cc(N2CCOCC2)oc2c(-c3cccc4c3sc3ccccc34)cccc12 + CS(=O)(=O)N1CCN(Cc2cc3nc(-c4cccc5[nH]ncc45)nc(N4CCOCC4)c3s2)CC1 [Pictilisib] (partner 1 µM)	NCI-H1299	0.688
O=c1cc(N2CCOCC2)oc2c(-c3cccc4c3sc3ccccc34)cccc12 + CS(=O)(=O)CCNCc1ccc(-c2ccc3ncnc(Nc4ccc(OCc5cccc(F)c5)c(Cl)c4)c3c2)o1 [Lapatinib] (partner 2 µM)	NCI-H1299	0.957
O=c1cc(N2CCOCC2)oc2c(-c3cccc4c3sc3ccccc34)cccc12 + CC(C)C[C@H](NC(=O)[C@H](Cc1ccccc1)NC(=O)c1cnccn1)B(O)O [Bortezomib] (partner 0.002 µM)	NCI-H1299	1.01
O=c1cc(N2CCOCC2)oc2c(-c3cccc4c3sc3ccccc34)cccc12 + Cc1nc(NC(=O)N2CCC[C@H]2C(N)=O)sc1-c1ccnc(C(C)(C)C(F)(F)F)c1 [Alpelisib] (partner 2 µM)	NCI-H1299	1.07
CCN(CC)CCCCNc1ncc2cc(-c3cc(OC)cc(OC)c3)c(NC(=O)NC(C)(C)C)nc2n1 + CC1(C)CCC(c2ccc(Cl)cc2)=C(CN2CCN(c3ccc(C(=O)NS(=O)(=O)c4ccc(N[C@H](CCN5CCOCC5)CSc5ccccc5)c(S(=O)(=O)C(F)(F)F)c4)cc3)CC2)C1 [Navitoclax] (partner 0.5 µM)	NCI-H1299	1.01
O=c1cc(N2CCOCC2)oc2c(-c3cccc4c3sc3ccccc34)cccc12 + C[C@@H](Oc1cc(-c2cnn(C3CCNCC3)c2)cnc1N)c1c(Cl)ccc(F)c1Cl [Crizotinib] (partner 1 µM)	NCI-H1299	0.954
